Reported inhibition values are given for each entry in this list.
Biological target: UniProt P49961
Sequence (whole entry): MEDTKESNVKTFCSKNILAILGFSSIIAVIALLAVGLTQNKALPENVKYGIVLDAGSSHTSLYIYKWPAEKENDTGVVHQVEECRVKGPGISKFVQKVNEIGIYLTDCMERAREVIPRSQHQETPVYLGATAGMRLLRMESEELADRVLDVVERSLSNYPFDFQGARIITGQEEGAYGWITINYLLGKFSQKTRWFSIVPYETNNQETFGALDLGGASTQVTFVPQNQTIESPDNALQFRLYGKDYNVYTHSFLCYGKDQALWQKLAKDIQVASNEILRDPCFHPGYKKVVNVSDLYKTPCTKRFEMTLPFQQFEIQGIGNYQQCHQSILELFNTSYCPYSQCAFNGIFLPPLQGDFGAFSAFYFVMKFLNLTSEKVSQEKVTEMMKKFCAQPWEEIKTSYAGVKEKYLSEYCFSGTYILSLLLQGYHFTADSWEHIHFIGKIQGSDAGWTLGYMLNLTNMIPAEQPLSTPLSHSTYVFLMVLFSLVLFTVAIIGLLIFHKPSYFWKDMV
Test: Inhibition of human NTPDase 1 expressed in COS7 cells at 1mM
Type: cell-based
Conditions: COS-7

>  <cpd.smiles>
CCOP(=O)(CNC(=O)CCCNC(=O)[C@H]1O[C@@H](n2cnc3c(N)ncnc32)[C@H](O)[C@@H]1O)OCC

>  <inhibition [%]>
0

$$$$
>  <cpd.smiles>
CCOP(=O)(CCNC(=O)CNC(=O)[C@H]1O[C@@H](n2ccc(=O)[nH]c2=O)[C@H](O)[C@@H]1O)OCC

>  <inhibition [%]>
0

$$$$
>  <cpd.smiles>
CCOP(=O)(Cc1ccc(NC(=O)CNC(=O)[C@H]2O[C@@H](n3cnc4c(N)ncnc43)[C@H](O)[C@@H]2O)cc1)OCC

>  <inhibition [%]>
0

$$$$
>  <cpd.smiles>
CCOP(=O)(CNC(=O)CNC(=O)[C@H]1O[C@@H](n2cnc3c(N)ncnc32)[C@H](O)[C@@H]1O)OCC

>  <inhibition [%]>
0

$$$$
>  <cpd.smiles>
CCOP(=O)(CNC(=O)CCCNC(=O)[C@H]1O[C@@H](n2ccc(=O)[nH]c2=O)[C@H](O)[C@@H]1O)OCC

>  <inhibition [%]>
45

$$$$
>  <cpd.smiles>
CCOP(=O)(Cc1ccc(NC(=O)CNC(=O)[C@H]2O[C@@H](n3ccc(=O)[nH]c3=O)[C@H](O)[C@@H]2O)cc1)OCC

>  <inhibition [%]>
50

$$$$
>  <cpd.smiles>
CCOP(=O)(CNC(=O)CCNC(=O)[C@H]1O[C@@H](n2cnc3c(N)ncnc32)[C@H](O)[C@@H]1O)OCC

>  <inhibition [%]>
0

$$$$
>  <cpd.smiles>
CCOP(=O)(CNC(=O)CCNC(=O)[C@H]1O[C@@H](n2ccc(=O)[nH]c2=O)[C@H](O)[C@@H]1O)OCC

>  <inhibition [%]>
0

$$$$
